# pIC50 annotations
- Assayed system: SARM1 (50-724) (Homo sapiens)
- Construct: Purified SARM1 (50-724) with a final concentration of 2 nM
- Sequence (Q6SZW1 50-724): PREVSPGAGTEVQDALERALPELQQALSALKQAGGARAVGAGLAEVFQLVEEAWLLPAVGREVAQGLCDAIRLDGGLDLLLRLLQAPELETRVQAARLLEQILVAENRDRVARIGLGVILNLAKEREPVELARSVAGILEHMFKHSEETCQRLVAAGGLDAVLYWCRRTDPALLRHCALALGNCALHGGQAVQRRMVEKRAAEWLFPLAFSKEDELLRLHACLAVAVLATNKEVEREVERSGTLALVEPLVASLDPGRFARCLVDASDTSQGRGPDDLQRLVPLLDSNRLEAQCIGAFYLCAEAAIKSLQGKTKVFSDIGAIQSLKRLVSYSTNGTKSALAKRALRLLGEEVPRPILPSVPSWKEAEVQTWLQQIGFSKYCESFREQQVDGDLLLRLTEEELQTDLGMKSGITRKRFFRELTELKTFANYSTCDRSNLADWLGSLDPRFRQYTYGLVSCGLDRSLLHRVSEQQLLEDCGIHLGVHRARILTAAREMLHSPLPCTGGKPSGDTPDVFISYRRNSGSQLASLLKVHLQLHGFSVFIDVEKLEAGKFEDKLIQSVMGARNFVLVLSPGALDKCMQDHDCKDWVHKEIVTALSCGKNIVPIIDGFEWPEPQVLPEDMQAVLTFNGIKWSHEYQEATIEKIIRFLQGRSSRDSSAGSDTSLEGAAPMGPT
- Assay method text: SARM1 (50-724) enzymatic assay (NMN-activated NAD+ hydrolysis, LC-MS/MS readout)
- Condition context: purified SARM1 (50-724) 2 nM, 200 μM NMN activator, 100 μM NAD+ substrate, 1 h at room temperature, read-out: IC50 (SARM1 inhibitory activity)
pIC50: −log10 of the molar value.

Below are worked cases with known answers.
Compound | Endpoint value
Cc1ccc2[nH]c(C(=O)N(C)C3CCCC3)c(CCO)c2c1 | 6.30 to 7.00
O=C(c1nc2cc(C(F)(F)F)cc(F)c2[nH]1)N(CCO)c1cccc(Cl)c1Cl | ≥ 7.00
O=C(c1nc2cc(C(F)(F)F)ccc2[nH]1)N(CCO)c1cnccc1C(F)(F)F | ≥ 7.00
Cc1ccc2[nH]c(C(=O)N(C)C3CCCC(C)C3C)c(CO)c2c1 (centres unmarked) | ≤ 6.00

Would you kindly look at the next entry?
Field pIC50 (entry CN(C(=O)c1nc2c(N3CCOCC3)cccc2[nH]1)C1CCCC1 ) reads ≤ 6.00
